# measurement_target: PRKCA (human) (UniProt P17252)
# assay_protocol: radiometric filter-binding kinase assay, Kinase HotSpot
# run_conditions: compound 0.5 µM; ATP 10 µM
property_name: residual activity (%)
Express the result in % but write the number alone.

Completed entries (count: 2):
>  <sample_smiles>
O=C1NC(=O)C(c2cn(CCCO)c3ncccc23)=C1c1cnccn1

>  <measurement_target>
PRKCA (human) (UniProt P17252)

>  <residual activity / %>
91.1

$$$$
>  <sample_smiles>
Nc1nccc(-c2c(-c3ccc(F)cc3)ncn2C2CCNCC2)n1

>  <measurement_target>
PRKCA (human) (UniProt P17252)

>  <residual activity / %>
89.1

$$$$

Here is the next item to consider.
Exercise: Let me know recorded residual activity for CC(C)c1nn(-c2c(Cl)cccc2Cl)c2nc(Cc3ccc(OCCO)cc3)nc(O)c12 , thanks.
Key: 89.9

###

# measurement_target: CDK9 CCNT1 (human) (UniProt P50750+O60563)
# Sequence (O60563 whole entry, looked up): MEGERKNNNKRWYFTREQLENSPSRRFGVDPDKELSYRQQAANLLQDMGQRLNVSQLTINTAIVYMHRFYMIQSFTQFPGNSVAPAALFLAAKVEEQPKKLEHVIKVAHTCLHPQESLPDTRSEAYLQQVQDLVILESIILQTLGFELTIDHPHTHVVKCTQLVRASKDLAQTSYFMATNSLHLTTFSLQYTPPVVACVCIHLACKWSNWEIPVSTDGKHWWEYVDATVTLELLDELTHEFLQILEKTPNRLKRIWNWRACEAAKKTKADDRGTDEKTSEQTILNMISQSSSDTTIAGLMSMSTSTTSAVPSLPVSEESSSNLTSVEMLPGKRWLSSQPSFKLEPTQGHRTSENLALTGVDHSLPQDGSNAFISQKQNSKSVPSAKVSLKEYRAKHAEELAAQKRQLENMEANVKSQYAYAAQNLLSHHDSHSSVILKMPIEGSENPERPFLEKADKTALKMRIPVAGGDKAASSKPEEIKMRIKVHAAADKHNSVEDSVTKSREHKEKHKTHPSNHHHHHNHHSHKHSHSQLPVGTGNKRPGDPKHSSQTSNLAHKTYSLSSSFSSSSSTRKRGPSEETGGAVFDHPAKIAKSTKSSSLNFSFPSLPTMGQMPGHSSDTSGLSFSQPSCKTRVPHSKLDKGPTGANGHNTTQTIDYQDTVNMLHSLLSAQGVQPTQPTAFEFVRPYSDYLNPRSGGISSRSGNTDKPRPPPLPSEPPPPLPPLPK
# Sequence (P50750 whole entry, looked up): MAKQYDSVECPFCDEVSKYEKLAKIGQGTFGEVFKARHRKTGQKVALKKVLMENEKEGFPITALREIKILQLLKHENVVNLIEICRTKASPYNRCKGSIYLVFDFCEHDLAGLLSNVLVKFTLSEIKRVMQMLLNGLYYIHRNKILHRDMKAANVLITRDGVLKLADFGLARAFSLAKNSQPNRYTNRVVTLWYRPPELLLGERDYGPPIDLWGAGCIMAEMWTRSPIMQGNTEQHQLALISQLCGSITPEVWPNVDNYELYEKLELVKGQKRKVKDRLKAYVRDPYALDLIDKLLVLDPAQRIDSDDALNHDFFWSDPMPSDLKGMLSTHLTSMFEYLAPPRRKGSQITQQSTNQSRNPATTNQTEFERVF
# assay_protocol: radiometric filter-binding kinase assay, Kinase HotSpot
# run_conditions: compound 0.5 µM; ATP 10 µM
property_name: residual activity (%)
Express the result in % but write the number alone.

Completed entries (count: 2):
>  <sample_smiles>
COc1ccc(CNC(=O)Nc2ncc([N+](=O)[O-])s2)cc1

>  <unit_text>
%

>  <measured_value>
88.1

$$$$
>  <sample_smiles>
Oc1ccc(Nc2nc(-c3ccc(Cl)cc3)cs2)cc1

>  <unit_text>
%

>  <measured_value>
87.8

$$$$

Exercise: // fetch residual activity for O=C1NC(=O)/C(=C\c2ccc3nccnc3c2)S1 ; system: CDK9 CCNT1 (human) (UniProt P50750+O60563)
Key: 87.7

###

# measurement_target: CDK6 CCND3 (human) (UniProt P30281+Q00534)
# Sequence (P30281 whole entry, looked up): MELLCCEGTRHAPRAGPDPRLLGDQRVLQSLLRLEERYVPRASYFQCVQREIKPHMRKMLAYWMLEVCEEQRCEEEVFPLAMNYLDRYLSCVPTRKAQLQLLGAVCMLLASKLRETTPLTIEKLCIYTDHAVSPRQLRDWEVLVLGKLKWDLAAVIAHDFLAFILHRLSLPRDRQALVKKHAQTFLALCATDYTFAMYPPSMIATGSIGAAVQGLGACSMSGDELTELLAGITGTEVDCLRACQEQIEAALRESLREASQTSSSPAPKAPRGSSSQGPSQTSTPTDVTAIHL
# Sequence (Q00534 whole entry, looked up): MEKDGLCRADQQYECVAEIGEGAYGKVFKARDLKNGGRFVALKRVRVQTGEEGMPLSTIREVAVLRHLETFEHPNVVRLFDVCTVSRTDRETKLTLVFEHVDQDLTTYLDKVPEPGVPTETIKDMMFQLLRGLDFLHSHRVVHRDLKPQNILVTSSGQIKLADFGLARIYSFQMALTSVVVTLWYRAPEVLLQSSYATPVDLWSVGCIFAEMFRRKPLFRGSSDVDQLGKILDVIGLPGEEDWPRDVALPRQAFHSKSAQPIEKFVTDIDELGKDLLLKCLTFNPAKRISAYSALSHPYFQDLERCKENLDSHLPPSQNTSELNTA
# assay_protocol: radiometric filter-binding kinase assay, Kinase HotSpot
# run_conditions: compound 0.5 µM; ATP 10 µM
property_name: residual activity
Answer as a quantity: numeral, then unit.

>  <molecule>
Oc1ccc(Nc2nc(-c3ccc(Cl)cc3)cs2)cc1

>  <residual activity>
109%

$$$$
>  <molecule>
COc1ccc(CNC(=O)Nc2ncc([N+](=O)[O-])s2)cc1

>  <residual activity>
99.1%

$$$$
>  <molecule>
COc1cc2ncnc(N3CCN(C(=O)Nc4ccc(Oc5ccccc5)cc4)CC3)c2cc1OC

>  <residual activity>
100%

$$$$
>  <molecule>
O=C1Nc2ccccc2/C1=C1\Nc2ccccc2\C1=N/O

>  <residual activity>
26.1%

$$$$
>  <molecule>
O=C(Nc1cccc(Nc2cc(Nc3cccc(C(F)(F)F)c3)ncn2)c1)C1CC1

>  <residual activity>
102%

$$$$

Exercise: // fetch residual activity for Nc1nccc(-c2c(-c3ccc(F)cc3)ncn2C2CCNCC2)n1 ; system: CDK6 CCND3 (human) (UniProt P30281+Q00534)
Key: 95.5%

Exercise: // fetch residual activity for CCN(CC)CCCCN1c2ccccc2Oc2ccc(Cl)cc21 ; system: CDK6 CCND3 (human) (UniProt P30281+Q00534)
Key: 102%

Exercise: // fetch residual activity for Cn1nc2c3c(cccc31)C(=O)c1ccccc1-2 ; system: CDK6 CCND3 (human) (UniProt P30281+Q00534)
Key: 101%

###

# measurement_target: DYRK4 (human) (UniProt Q9NR20)
# Sequence (Q9NR20 whole entry, looked up): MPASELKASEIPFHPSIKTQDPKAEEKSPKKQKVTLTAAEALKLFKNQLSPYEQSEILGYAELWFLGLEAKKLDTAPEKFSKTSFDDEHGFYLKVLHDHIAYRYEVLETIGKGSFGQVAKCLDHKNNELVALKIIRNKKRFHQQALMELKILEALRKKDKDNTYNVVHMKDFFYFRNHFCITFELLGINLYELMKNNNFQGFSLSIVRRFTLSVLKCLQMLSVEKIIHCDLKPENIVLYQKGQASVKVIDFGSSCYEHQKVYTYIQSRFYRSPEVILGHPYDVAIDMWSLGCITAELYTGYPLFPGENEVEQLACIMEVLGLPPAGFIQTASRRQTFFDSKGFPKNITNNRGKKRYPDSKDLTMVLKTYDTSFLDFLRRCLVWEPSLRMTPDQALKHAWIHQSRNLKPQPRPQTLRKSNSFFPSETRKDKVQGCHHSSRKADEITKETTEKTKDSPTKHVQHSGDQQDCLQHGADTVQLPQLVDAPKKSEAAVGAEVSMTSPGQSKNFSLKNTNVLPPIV
# assay_protocol: radiometric filter-binding kinase assay, Kinase HotSpot
# run_conditions: compound 0.5 µM; ATP 10 µM
The following compounds are listed with their measured residual activity values.
Express the result in % but write the number alone.

>  <compound>
Nc1nccc(-c2c(-c3ccc(F)cc3)ncn2C2CCNCC2)n1

>  <unit_text>
%

>  <measured_value>
99.3

$$$$
>  <compound>
O=C1Cc2c([nH]c3ccc(Br)cc23)-c2ccccc2N1

>  <unit_text>
%

>  <measured_value>
97.2

$$$$
>  <compound>
COc1ccc(OC)c2c(=S)c3ccccc3[nH]c12

>  <unit_text>
%

>  <measured_value>
107

$$$$
>  <compound>
CC(C)[C@H](CO)Nc1nc(Nc2cc(N)cc(Cl)c2)c2ncn(C(C)C)c2n1

>  <unit_text>
%

>  <measured_value>
91.6

$$$$
>  <compound>
COc1cc2ncc(-c3ccccc3)nc2cc1OC

>  <unit_text>
%

>  <measured_value>
112

$$$$
>  <compound>
O=C1NC(=O)C(c2cn(CCCO)c3ncccc23)=C1c1cnccn1

>  <unit_text>
%

>  <measured_value>
98.4

$$$$

Exercise: Let me know recorded residual activity for O=C1NC(=O)C(c2c[nH]c3ccccc23)=C1c1c[nH]c2ccccc12 , thanks.
Key: 94.3

Exercise: Let me know recorded residual activity for O=C(O)/C=C/c1cc(Br)c(Br)c(Br)c1Br , thanks.
Key: 96.4

Exercise: Let me know recorded residual activity for CC(C)c1nn(-c2c(Cl)cccc2Cl)c2nc(Cc3ccc(OCCO)cc3)nc(O)c12 , thanks.
Key: 96.7
